B1: PTPN9 (parent)
chain: IDFLRVVRNQQSLAVSNMGARSKG

Variants of: B1
Assay: protein stability index of a GFP-peptide fusion (GPS, HEK-293T) (PSI 1-6); higher = more stable;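 further: lentivirally expressed fusions sorted by FACS into six bins by GFP to DsRed ratio, PSI derived from sequencing read proportions per bin multiplied by bin number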
Conditions: c terminus: a fixed tail appended
protein stability index reference
API doc: respond with a numeric literal and nothing else, no unit.

Illustrative cases are given below, each with its answer.
Req: Hello, please tell me recorded protein stability index for this one: `N17T`
Resp: 2.71

Req: Please give the documented protein stability index of `R5S`
Resp: 3

Req: Give protein stability index for `V15D`
Resp: 2.52

Req: State its protein stability index: `G19R`
Resp: 1.97

Now consider the entry below.
Req: Consider the variant `R21H` . State its measured protein stability index.
Resp: 2.67
